measurement target: mouse ACVR2A (mouse, UniProt P27038 20-135, limits assumed); also: test concentration or dose not given here
Sequence (P27038 20-135 limits assumed): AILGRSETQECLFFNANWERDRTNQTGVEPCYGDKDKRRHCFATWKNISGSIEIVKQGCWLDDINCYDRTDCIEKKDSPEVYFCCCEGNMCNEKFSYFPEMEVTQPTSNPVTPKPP
experiment description: ELISA

binder: 375_D02 (antibody, V domains shown, Group II) VH: EVQLLESGGGLVQPGGSLRLSCAASGFTFSSYSMNWVRQAPGKGLEWVSNINYNGGYTSYADSVKGRFTISRDNSKNTLYLQMNSLRAEDTAVYYCARAATWHDTHLDYWGQGTLVTVSS VL: DIQMTQSPSSLSASVGDRVTITCRASQSILTYLNWYQQKPGKAPKLLIYAASSLQSGVPSRFSGSGSGTDFTLTISSLQPEDFATYYCQQSYELPLTFGGGTKVEIK
optical density (OD): 3.56

binder: 368_H03 (antibody, V domains shown, Group II) VH: EVQLLESGGGLVQPGGSLRLSCAASGFTFDDYSMHWVRQAPGKGLEWVASINYNGGYTGYADSVKGRFTISRDNSKNTLYLQMNSLRAEDTAVYYCARAATWHDTHLDYWGQGTLVTVSS VL: DIQMTQSPSSLSASVGDRVTITCRASQSILSYVNWYQQKPGKAPKLVIYAVTSRHSGVPSRFSGSGSGTDFTLTISSLQPEDFATYYCQQSYSNPLTFGGGTKVEIK
optical density (OD): 2.73

binder: 369_A04 (antibody, V domains shown, Group II) VH: EVQLLESGGGLVQPGGSLRLSCAASGFTFDSYGMHWVRQAPGKGLEWVASINYNGGYKSYADSVKGRFTISRDNSKNTLYLQMNSLRAEDTAVYYCARAATWHDTHLDYWGQGTLVTVSS VL: DIQMTQSPSSLSASVGDRVTITCRASQSIVSYVNWYQQKPGKAPKLVIYAATSLASGVPSRFSGSGSGTDFTLTISSLQPEDFATYYCQQSYDLPLTFGGGTKVEIK
optical density (OD): 2.86
